statedConditions: Glass; DTA
Decision: Glass transition temperature beneath -80 °C gives class 1; Glass transition temperature meeting or exceeding -80 °C gives class 0.

Example cases with answers are listed next.
CCCCCCCCn1cc[n+](C)c1.O=S(=O)([O-])C(F)(F)C(F)(F)C(F)(F)C(F)(F)F [1-methyl-3-octylimidazolium perfluorobutanesulfonate]: class 1
CCCCCCCCn1cc[n+](C)c1.N#C[N-]C#N [3-methyl-1-octylimidazolium dicyanamide]: class 1
CCCCCCCCn1cc[n+](C)c1.O=S(=O)([N-]S(=O)(=O)C(F)(F)F)C(F)(F)F: class 1
CCCC[n+]1ccc(C)cc1.O=S(=O)([O-])C(F)(F)C(F)(F)C(F)(F)C(F)(F)F: class 0

Below -80 °C on Glass transition temperature? Entry CCCC[n+]1ccc(C)cc1.O=S(=O)([O-])C(F)(F)F [1-butyl-4-methylpyridinium trifluoromethanesulfonate] class 0
